selectivity ratio at 24 h reference
Tested on: influenza virus A/PR/8/34 (H1N1)
assay_comment: in vitro
measurement_context: Pre-Treatment Assay SI (selective index, CC50/EC50), pre-treatment, MDCK, H1N1
observable: selectivity ratio at 24 h

1) COc1cc(/C=C/c2cc(O)cc(O)c2)ccc1O; 13.9
2) C/C=C/C(=O)c1c(O)c2c(c3c(-c4ccccc4)cc(=O)oc13)OC(C)(C)C=C2; 4.22
3) Oc1cc(O)cc(/C=C/c2ccccc2)c1; 2.42
4) CCCOC(=O)c1cc(O)c(O)c(O)c1 [J25986, Propyl gallate]; 11.4
5) O=C(O[C@@H]1O[C@@H]2COC(=O)c3cc(O)c(O)c(O)c3-c3c(cc(O)c(O)c3O)C(=O)O[C@H]([C@H]1O)[C@@H]2O)c1cc(O)c(O)c(O)c1; 38.5
